test_name: in vivo
Set-up: species or system mice
experimental_parameters: male, NODSCID 1L2RγKO, mouse, iv, total radioactivity, Liver uptake
readout_name: tissue uptake at 1 h (%ID/g)
// units = %ID/g; emit number, no label

Lab note: measured tissue uptake at 1 h of O=C(O)CCC[C@H](NC(=O)N[C@@H](CCCCNC(=O)[C@H](Cc1c2ccccc2cc2ccccc12)NC(=O)[C@H]1CC[C@H](CNC(=O)CN2CCN(CC(=O)O)CCN(CC(=O)O)CCN(CC(=O)O)CC2)CC1)C(=O)O)C(=O)O [177Lu-HTK03149, metal not drawn] was 0.26

Noted for COc1ccc(CCCC(=O)NCC(=O)N[C@@H](CCCCNC(=O)CN2CCN(CC(=O)O)CCN(CC(=O)O)CCN(CC(=O)O)CC2)C(=O)NC[C@H]2CC[C@H](C(=O)N[C@@H](Cc3c4ccccc4cc4ccccc34)C(=O)NCCCC[C@H](NC(=O)N[C@@H](COCC(=O)O)C(=O)O)C(=O)O)CC2)cc1 [177Lu-HTK04028, metal not drawn] : its tissue uptake at 1 h reads 2.93

compound O=C(O)CCC[C@H](NC(=O)N[C@@H](CCCCNC(=O)[C@H](Cc1c2ccccc2cc2ccccc12)NC(=O)[C@H]1CC[C@H](CNC(=O)[C@H](CCCCNC(=O)CN2CCN(CC(=O)O)CCN(CC(=O)O)CCN(CC(=O)O)CC2)NC(=O)CNC(=O)CCCc2ccc(Cl)cc2)CC1)C(=O)O)C(=O)O [177Lu-HTK03153, metal not drawn] , tissue uptake at 1 h observed: 3.61

---

test_name: in vivo
Set-up: species or system mice
experimental_parameters: male, NODSCID 1L2RγKO, mouse, iv, total radioactivity, Intestine uptake
readout_name: tissue uptake at 24 h (%ID/g)
# output: bare number, implied unit %ID/g

Sample O=C(O)CCC[C@H](NC(=O)N[C@@H](CCCCNC(=O)[C@H](Cc1c2ccccc2cc2ccccc12)NC(=O)[C@H]1CC[C@H](CNC(=O)[C@H](CCCCNC(=O)CN2CCN(CC(=O)O)CCN(CC(=O)O)CCN(CC(=O)O)CC2)NC(=O)CNC(=O)CCCc2ccc(Cl)cc2)CC1)C(=O)O)C(=O)O [177Lu-HTK03153, metal not drawn] ; tissue uptake at 24 h observed: 0.78

O=C(O)CCC[C@H](NC(=O)N[C@@H](CCCCNC(=O)[C@H](Cc1c2ccccc2cc2ccccc12)NC(=O)[C@H]1CC[C@H](CNC(=O)CN2CCN(CC(=O)O)CCN(CC(=O)O)CCN(CC(=O)O)CC2)CC1)C(=O)O)C(=O)O [177Lu-HTK03149, metal not drawn] yielded tissue uptake at 24 h of 0.09

Input COc1ccc(CCCC(=O)NCC(=O)N[C@@H](CCCCNC(=O)CN2CCN(CC(=O)O)CCN(CC(=O)O)CCN(CC(=O)O)CC2)C(=O)NC[C@H]2CC[C@H](C(=O)N[C@@H](Cc3c4ccccc4cc4ccccc34)C(=O)NCCCC[C@H](NC(=O)N[C@@H](COCC(=O)O)C(=O)O)C(=O)O)CC2)cc1 [177Lu-HTK04028, metal not drawn] . Output tissue uptake at 24 h: 0.23

The compound COc1ccc(CCCC(=O)NCC(=O)N[C@@H](CCCCNC(=O)CN2CCN(CC(=O)O)CCN(CC(=O)O)CCN(CC(=O)O)CC2)C(=O)NC[C@H]2CC[C@H](C(=O)N[C@@H](Cc3c4ccccc4cc4ccccc34)C(=O)NCCCC[C@H](NC(=O)N[C@@H](CCCC(=O)O)C(=O)O)C(=O)O)CC2)cc1 [177Lu-HTK03170, metal not drawn] showed tissue uptake at 24 h equal to 0.18

Data point: COc1ccc(CCCC(=O)NCC(=O)N[C@@H](CCCCNC(=O)CN2CCN(CC(=O)O)CCN(CC(=O)O)CCN(CC(=O)O)CC2)C(=O)NC[C@H]2CC[C@H](C(=O)N[C@@H](Cc3c4ccccc4cc4ccccc34)C(=O)NCCCC[C@H](NC(=O)N[C@@H](CSCC(=O)O)C(=O)O)C(=O)O)CC2)cc1 [177Lu-HTK04048, metal not drawn] ; tissue uptake at 24 h = 0.49

---

test_name: in vivo
Set-up: species or system mice
experimental_parameters: male, NODSCID 1L2RγKO, mouse, iv, total radioactivity, Lungs uptake
readout_name: tissue uptake at 4 h (%ID/g)
Form entry: value (%ID/g) — number only.

Note to self: tissue uptake at 4 h recorded for COc1ccc(CCCC(=O)NCC(=O)N[C@@H](CCCCNC(=O)CN2CCN(CC(=O)O)CCN(CC(=O)O)CCN(CC(=O)O)CC2)C(=O)NC[C@H]2CC[C@H](C(=O)N[C@@H](Cc3c4ccccc4cc4ccccc34)C(=O)NCCCC[C@H](NC(=O)N[C@@H](CCCC(=O)O)C(=O)O)C(=O)O)CC2)cc1 [177Lu-HTK03170, metal not drawn] was 4.35

Sure, the documented tissue uptake at 4 h for O=C(O)CCC[C@H](NC(=O)N[C@@H](CCCCNC(=O)[C@H](Cc1c2ccccc2cc2ccccc12)NC(=O)[C@H]1CC[C@H](CNC(=O)[C@H](CCCCNC(=O)CN2CCN(CC(=O)O)CCN(CC(=O)O)CCN(CC(=O)O)CC2)NC(=O)CNC(=O)CCCc2ccc(Cl)cc2)CC1)C(=O)O)C(=O)O [177Lu-HTK03153, metal not drawn] is 9.4

get_value(item= COc1ccc(CCCC(=O)NCC(=O)N[C@@H](CCCCNC(=O)CN2CCN(CC(=O)O)CCN(CC(=O)O)CCN(CC(=O)O)CC2)C(=O)NC[C@H]2CC[C@H](C(=O)N[C@@H](Cc3c4ccccc4cc4ccccc34)C(=O)NCCCC[C@H](NC(=O)N[C@@H](COCC(=O)O)C(=O)O)C(=O)O)CC2)cc1 [177Lu-HTK04028, metal not drawn] , readout=tissue uptake at 4 h) returns 5.79

// tissue uptake at 4 h value for O=C(O)CCC[C@H](NC(=O)N[C@@H](CCCCNC(=O)[C@H](Cc1c2ccccc2cc2ccccc12)NC(=O)[C@H]1CC[C@H](CNC(=O)CN2CCN(CC(=O)O)CCN(CC(=O)O)CCN(CC(=O)O)CC2)CC1)C(=O)O)C(=O)O [177Lu-HTK03149, metal not drawn] : 0.17

Sure, the documented tissue uptake at 4 h for COc1ccc(CCCC(=O)NCC(=O)N[C@@H](CCCCNC(=O)CN2CCN(CC(=O)O)CCN(CC(=O)O)CCN(CC(=O)O)CC2)C(=O)NC[C@H]2CC[C@H](C(=O)N[C@@H](Cc3c4ccccc4cc4ccccc34)C(=O)NCCCC[C@H](NC(=O)N[C@@H](CSCC(=O)O)C(=O)O)C(=O)O)CC2)cc1 [177Lu-HTK04048, metal not drawn] is 6.35

---

Exercise: for every item that follows, state its recorded tissue uptake at 4 h.
test_name: in vivo
Set-up: species or system mice
experimental_parameters: male, NODSCID 1L2RγKO, mouse, iv, total radioactivity, Heart uptake
The response must be a number in %ID/g with no trailing unit.

Data point: O=C(O)CCC[C@H](NC(=O)N[C@@H](CCCCNC(=O)[C@H](Cc1c2ccccc2cc2ccccc12)NC(=O)[C@H]1CC[C@H](CNC(=O)CN2CCN(CC(=O)O)CCN(CC(=O)O)CCN(CC(=O)O)CC2)CC1)C(=O)O)C(=O)O [177Lu-HTK03149, metal not drawn] ; tissue uptake at 4 h = 0.07

Value of measured tissue uptake at 4 h for the entry COc1ccc(CCCC(=O)NCC(=O)N[C@@H](CCCCNC(=O)CN2CCN(CC(=O)O)CCN(CC(=O)O)CCN(CC(=O)O)CC2)C(=O)NC[C@H]2CC[C@H](C(=O)N[C@@H](Cc3c4ccccc4cc4ccccc34)C(=O)NCCCC[C@H](NC(=O)N[C@@H](CCCC(=O)O)C(=O)O)C(=O)O)CC2)cc1 [177Lu-HTK03170, metal not drawn] : 1.91

---

Kindly supply the reported tissue uptake at 4 h values for the records listed here.
test_name: in vivo
Design: species or system mice
experimental_parameters: male, NODSCID 1L2RγKO, mouse, iv, total radioactivity, Adrenal glands uptake
Reply with the number and its unit after it.

Lab note: O=C(O)CCC[C@H](NC(=O)N[C@@H](CCCCNC(=O)[C@H](Cc1c2ccccc2cc2ccccc12)NC(=O)[C@H]1CC[C@H](CNC(=O)[C@H](CCCCNC(=O)CN2CCN(CC(=O)O)CCN(CC(=O)O)CCN(CC(=O)O)CC2)NC(=O)CNC(=O)CCCc2ccc(Cl)cc2)CC1)C(=O)O)C(=O)O [177Lu-HTK03153, metal not drawn] gave tissue uptake at 4 h of 3.5 %ID/g

Noted for COc1ccc(CCCC(=O)NCC(=O)N[C@@H](CCCCNC(=O)CN2CCN(CC(=O)O)CCN(CC(=O)O)CCN(CC(=O)O)CC2)C(=O)NC[C@H]2CC[C@H](C(=O)N[C@@H](Cc3c4ccccc4cc4ccccc34)C(=O)NCCCC[C@H](NC(=O)N[C@@H](CSCC(=O)O)C(=O)O)C(=O)O)CC2)cc1 [177Lu-HTK04048, metal not drawn] : its tissue uptake at 4 h reads 2.1 %ID/g

tissue uptake at 4 h for COc1ccc(CCCC(=O)NCC(=O)N[C@@H](CCCCNC(=O)CN2CCN(CC(=O)O)CCN(CC(=O)O)CCN(CC(=O)O)CC2)C(=O)NC[C@H]2CC[C@H](C(=O)N[C@@H](Cc3c4ccccc4cc4ccccc34)C(=O)NCCCC[C@H](NC(=O)N[C@@H](CCCC(=O)O)C(=O)O)C(=O)O)CC2)cc1 [177Lu-HTK03170, metal not drawn] is 1.78 %ID/g
